tested on: Staphylococcus aureus; assay: Antibacterial activity against methicillin-resistant Staphylococcus aureus EMRSA-16 after 20 hrs by broth microdilution method; format: functional; conditions: EMRSA-16, 20 h
Attribute measured: MIC (µg/mL)
Quick reminder: number only, in µg/mL, skip the unit.

Query: Determine its reported MIC: O=C1CN(/N=C/c2ccc([N+](=O)[O-])o2)C(=O)N1 [NITROFURANTOIN]
Result: 16

Query: Report MIC for O=[N+]([O-])c1ccc(C2=NOC(c3ccc(-c4cccnc4)cc3)C2)o1 (configuration not stated)
Result: 16

Query: Give a short answer stating reported MIC for O=[N+]([O-])c1ccc(C2=NOC(c3ccc(-c4ccncc4)cc3)C2)o1 (configuration not stated) .
Result: 64

Query: Return MIC (reported value) for this compound: O=C(O)c1cn(C2CC2)c2cc(N3CCNCC3)c(F)cc2c1=O [CIPROFLOXACIN]
Result: 32

Query: Given the compound COc1ccc(CN2CCN(c3ccc(C4CC(c5ccc([N+](=O)[O-])o5)=NO4)cc3)CC2)cn1 (configuration not stated) , write its reported MIC.
Result: 32

Query: Provide MIC value for the following compound: O=[N+]([O-])c1ccc(C2=NOC(c3ccc(N4CCN(Cc5ccc(F)nc5)CC4)cc3)C2)o1 (configuration not stated)
Result: 16

Query: Please give measured MIC of the following entry: O=[N+]([O-])c1ccc(C2=NOC(c3ccc(N4CCN(Cc5ccccn5)CC4)cc3)C2)o1 (configuration not stated)
Result: 32

Query: Please report MIC for the following compound: O=[N+]([O-])c1ccc(C2=NOC(c3ccc(N4CCN(Cc5cccnc5)CC4)cc3)C2)o1 (configuration not stated)
Result: 32

Query: Return MIC for the following compound: O=[N+]([O-])c1ccc(C2=NOC(c3ccc(N4CCN(Cc5ccncc5)CC4)cc3)C2)o1 (configuration not stated)
Result: 128
